Tested on: HL-60(TB) leukemia
Experiment: NCI tumour cell line growth inhibition, 48 h
value-kind: TGI

compound | assay-system | result
Cc1ccc(Nc2ccc(Nc3ccc(C)cc3)c3c2C(=O)c2c(O)ccc(O)c2C3=O)cc1 | HL-60(TB) leukemia | > 100 µM
NC(CCCCNc1ccn(C2OC(CO)C(O)C2O)c(=O)n1)C(=O)O (stereo not drawn) | HL-60(TB) leukemia | > 100 µM
O=C(/C=C/c1cccc(Cl)c1)c1ccc(Cl)cc1Cl | HL-60(TB) leukemia | > 50 µM

---

Tested on: SK-MEL-2 melanoma
Assay: NCI tumour cell line growth inhibition, 48 h
Examples of molecules with documented TGI follow.
value-kind: TGI

molecule | result
CSC(=NCCN=C(NS(=O)(=O)c1ccc(Cl)cc1)SC)NS(=O)(=O)c1ccc(Cl)cc1 | > 100 µM
COc1nc(=O)n(C2CC(N=[N+]=[N-])C(CO)O2)cc1C (stereo unspecified) | > 100 µM
Cn1ccnc1C(=O)/C=C/c1ccc(C(=O)Nc2nc3ccccc3[nH]2)cc1 | > 25 µM
CC[C@@H]1OC2(C)CC(S(=O)(=O)c3ccccc3)CC1O2 (stereo partly specified) | > 100 µM
O=C(O)c1ccccc1/C=N\NC1=NCCN1 | > 100 µM
Cn1c(=O)n(CC(Br)CBr)c(=O)n(CC(Br)CBr)c1=O (stereo unspecified) | > 100 µM

---

Test system: HCT-116 colon
Assay: NCI tumour cell line growth inhibition, 48 h
Consider the following compounds and their measured TGI readings.
value-kind: TGI

compound | value-kind | result
CN(Cc1cnc2nc(N)nc(N)c2n1)c1ccc(C(=O)NC(CCC(=O)O)C(=O)O)cc1 (stereo not drawn) | TGI | > 100 µM
CC(C)(C)OC(=O)NC(Cc1ccc([N+](=O)[O-])cc1)C(=O)NC(CCCCNC(=O)OCc1ccccc1)C(=O)ON1C(=O)CCC1=O (stereo not drawn) | TGI | > 100 µM
Cc1ccc(N2C(=O)/C(=C3\Sc4c(nc(C)[nH]c4=O)N3c3ccccc3)SC2=S)cc1 | TGI | > 100 µM

---

System: UACC-62 melanoma
Assay: NCI tumour cell line growth inhibition, 48 h; in the data active means GI50 below about 0.43 µM; inactive means the rest
Possible outcomes: yes (active), no (inactive)

compound | label
COc1ccc(C(O)c2cc3c(N)c(C(=O)Nc4cccc(Br)c4)sc3nc2C)cc1 (centres undefined) | yes
Oc1c(CN2CCCC2)cc(COCc2ccccc2)c2cccnc12 | no
C#Cc1ccc(NC(=O)c2ccc(/C=C/C(=O)c3nccn3C)cc2)cc1 | no
Cn1ccnc1C(=O)/C=C/c1ccc(C(=O)Nc2nc3ccccc3[nH]2)cc1 | no

---

Tested on: HCC-2998 colon
Test: NCI tumour cell line growth inhibition, 48 h; in the data active = GI50 below about 0.43 µM; inactive = the rest
Outcomes: 1 (active), -1 (inactive)

compound | label
Cn1ccnc1C(=O)/C=C/c1ccc(C(=O)Nc2nc3ccccc3[nH]2)cc1 | -1
COc1ccc(/C=C2\COc3ccc(-c4ccccc4)cc3C2=O)cc1O | -1
Oc1ccccc1-n1c(-c2ccccc2)ccc1-c1ccccc1 | -1
O=C(NNS(=O)(=O)c1cc(C(F)(F)F)cc(C(F)(F)F)c1)c1cnn(-c2ccc(Cl)cc2)c1C(F)(F)F | -1
COC(=O)CCC1=C(C)c2cc3[n-]c(cc4nc(cc5[n-]c(cc1n2)c(CCC(=O)OC)c5C)C=C4C)cc3C.[Cd+2] | -1
CN(Cc1cnc2nc(N)nc(N)c2n1)c1ccc(C(=O)NC(CCC(=O)O)C(=O)O)cc1 (stereo not drawn) | 1
O=C1/C(=C/c2cccs2)CCC/C1=C\c1cccs1 | -1
COc1ccc(-c2ccc(-c3ccc(C(=N)N)cn3)s2)cc1Cl | -1
